Listing of recorded bioavailability by entry.
- Run description: Bioavailability in Sprague-Dawley rat at 20 mg/kg, ip measured up to 48 hrs after administration by HPLC analysis
- Assay type: ADME, organism-based
- Condition context: in vivo
A number alone suffices; assume %.

| Compound | Units symbol | bioavailability |
| --- | --- | --- |
| CCN(CC)CCCNC(=O)c1ccc(C(CC)(CC)c2ccc(OCCC(O)(CC)CC)c(C)c2)n1CC | % | 30.2 |

Please report the recorded bioavailability for CCn1c(C(=O)NCCCN2CCOCC2)ccc1C(CC)(CC)c1ccc(OCCC(O)(CC)CC)c(C)c1 . 62.5

Please report the recorded bioavailability for CCn1c(C(=O)NC(C)CO)ccc1C(CC)(CC)c1ccc(OCC(O)C(C)(C)C)c(C)c1 (stereo not drawn) . 46.2

====

- System: MCF7
- Run description: Induction of apoptosis in human MCF7 cells assessed as late apoptotic cells at 1 uM after 24 hrs by Annexin V-FITC/propidium iodide-staining based flow cytometry (reference value: 0.062%)
- Format: functional
Just a reminder that ties go to False: only Activity strictly below 3% counts as True.

// below: answered compounds
| Compound | Assigned category |
| --- | --- |
| CCN(CC)CCNC(=O)c1ccc(C(CC)(CC)c2ccc(OCCC(O)(CC)CC)c(C)c2)n1CC | True |
| CCN(CC)CCCNC(=O)c1ccc(C(CC)(CC)c2ccc(OCCC(O)(CC)CC)c(C)c2)n1CC | False |
| CCn1c(C(=O)N(C)CC(=O)O)ccc1C(CC)(CC)c1ccc(OCCC(O)(CC)CC)c(C)c1 | False |
| CCn1c(C(=O)NCCCN2CCOCC2)ccc1C(CC)(CC)c1ccc(OCCC(O)(CC)CC)c(C)c1 | True |
| Cc1cc(C2(c3ccc(OCC(=O)C(C)(C)C)c(C)c3)CCCCC2)ccc1OCC(=O)C(C)(C)C | True |
| C=C1/C(=C\C=C2/CCC[C@]3(C)[C@@H]([C@H](C)CCCC(C)(C)O)CC[C@@H]23)C[C@@H](O)C[C@@H]1O | False |

Identify whether the compound CCn1c(C(=O)NC(C)CO)ccc1C(CC)(CC)c1ccc(OCC(O)C(C)(C)C)c(C)c1 (configuration not stated) records Activity below 3%. True

====

- Run description: Drug uptake in human MCF7 cells at 1 uM after 30 mins by HPLC analysis
- Type: ADME, cell-based
- Condition context: mcf7, 0.5 h

| Compound | Drug uptake |
| --- | --- |
| C=C1/C(=C\C=C2/CCC[C@]3(C)[C@@H]([C@H](C)CCCC(C)(C)O)CC[C@@H]23)C[C@@H](O)C[C@@H]1O [CALCITRIOL] | 10.4% |
| CCn1c(C(=O)NCCCN2CCOCC2)ccc1C(CC)(CC)c1ccc(OCCC(O)(CC)CC)c(C)c1 | 38.2% |
| CCN(CC)CCNC(=O)c1ccc(C(CC)(CC)c2ccc(OCCC(O)(CC)CC)c(C)c2)n1CC | Active |
| CCN(CC)CCCNC(=O)c1ccc(C(CC)(CC)c2ccc(OCCC(O)(CC)CC)c(C)c2)n1CC | Active |

====

- Tested on: MCF7
- Run description: Antiproliferative activity against human MCF7 cells after 48 hrs by MTT assay
- Type: functional, cell-based
- Condition context: MCF7, 48 h
pIC50: −log10 of the molar value.
Could you label it met if measured pIC50 is 5 or higher, and not met otherwise?

| Compound | Assigned category |
| --- | --- |
| CCC(C)C(NC(=O)c1ccc(C(CC)(CC)c2ccc(OCCC(O)(CC)CC)c(C)c2)n1CC)C(=O)OC (stereo unspecified) | not met |
| CCn1c(C(=O)NCCCN2CCOCC2)ccc1C(CC)(CC)c1ccc(OCCC(O)(CC)CC)c(C)c1 | met |
| C#CCCOC(=O)c1ccc(C(CC)(CC)c2ccc(OCCC(O)(CC)CC)c(C)c2)n1CC | not met |

Record CCn1c(C(=O)Nc2ccc(OC(F)(F)F)cc2)ccc1C(CC)(CC)c1ccc(OCCC(O)(CC)CC)c(C)c1 ; criterion: pIC50 no lower than 5. Met? not met

Record C#CC(C)OC(=O)c1ccc(C(CC)(CC)c2ccc(OCCC(O)(CC)CC)c(C)c2)n1CC (stereo unspecified) ; criterion: pIC50 no lower than 5. Met? not met

Record CCC(C)C(CO)NC(=O)c1ccc(C(CC)(CC)c2ccc(OCCC(O)(CC)CC)c(C)c2)n1CC (stereo unspecified) ; criterion: pIC50 no lower than 5. Met? not met
